# System: P12-Ichikawa
# Protocol Text: cell viability relative to DMSO control; higher = less cytotoxic
# Settings: RPMI 5 mM glucose + 10% dialyzed FBS; 48 h; 15.4 µM
Readout Label: cell viability (%)
Give bare numbers, in %.

- Smiles Representation: "NC1(Cc2ccc(Cl)cc2)CCN(c2ncnc3[nH]ccc23)CC1"
  cell viability [%]: 47
- Smiles Representation: "COC1=NC(=NC(=C1N\\C2=N\\CCN2)Cl)C"
  cell viability [%]: 94

Please supply cell viability for each of the following items, keeping them in order.
1. Cc1ccc(NC(=O)c2ccc(CN3CCN(C)CC3)cc2)cc1Nc1nc(-c2cccnc2)cs1
2. CCCCn1c(=O)n(Cc2ccccc2F)c(=O)c2nc(Cc3ccc(NC(C)=O)cc3)[nH]c21

**A:**
1. 46.1
2. 79.7

----------
Hi there, I'd appreciate the recorded cell viability for every entry that follows.
# Test system: SEM cells
# Protocol Text: cell viability relative to DMSO control; higher = less cytotoxic
# Settings: HPLM + 10% dialyzed FBS; 48 h; 0.000781 µM
One number for each entry, in %.

- Smiles Representation: "CCCCCOC(=O)NC\\1=N\\C(=O)N(\\C=C1F)[C@@H]2O[C@H](C)[C@@H](O)[C@H]2O"
  Readout Label: "cell viability"
  Experimental Value: 94
- Smiles Representation: "COC1=CC2=NC=CC(=C2C=C1)OC3=CN=C(NC(=O)C/4=C(C)/N(CC(C)(C)O)N(C4=O)C5=CC=CC=C5)C=C3"
  Readout Label: "cell viability"
  Experimental Value: 82.3

Dear colleague, could you please provide cell viability for the compounds listed below?
1. OC[C@H]1O[C@@H](O[C@@H]2[C@@H](CO)O[C@](O)(CO)[C@H]2O)[C@H](O)[C@@H](O)[C@H]1O
2. Nc1ccccc1NC(=O)c1ccc(CNC(=O)OCc2cccnc2)cc1

**A:**
[103, 109]

----------
# Test system: SEM cells
# Protocol Text: cell viability relative to DMSO control; higher = less cytotoxic
# Settings: RPMI 5 mM glucose + 10% dialyzed FBS; 48 h; 0.00702 µM
So I've got a bunch of compounds here, and I need their cell viability values.
Give bare numbers, in %.

Consider the following illustrative entries.
- Compound: "Cc1ccc(NC(=O)c2ccc(CN3CCN(C)CC3)cc2)cc1Nc1nc(-c2cccnc2)cs1"
  Target Entity: "SEM cells"
  cell viability, %: 74.7
- Compound: "Cc1ccccc1C(C(=O)NC1CCCCC1)N(C(=O)Cn1ccnc1C)c1cccc(F)c1 (stereo not given)"
  Target Entity: "SEM cells"
  cell viability, %: 100
- Compound: "COc1ccc(C[C@@H](C)[C@@H](C)Cc2ccc(OC)c(OC)c2)cc1OC"
  Target Entity: "SEM cells"
  cell viability, %: 88.9

Return reported cell viability values for all items listed beneath this line.
1. COc1cc2c(cc1OC)C1CC(=O)C(CC(C)C)CN1CC2 (stereo not given)
2. NC1(Cc2ccc(Cl)cc2)CCN(c2ncnc3[nH]ccc23)CC1
3. CC1=CC=CC=C1N2\C(=N/C3=C(C(=CC=C3)C)C2=O)C[N]4C=NC5=C4N=CN=C5N

**A:**
1. 113
2. 99.7
3. 120

----------
# System: SEM cells
# Protocol Text: cell viability relative to DMSO control; higher = less cytotoxic
# Settings: RPMI 5 mM glucose + 10% dialyzed FBS; 48 h; 15.4 µM
Readout Label: cell viability (%)
Give bare numbers, in %.

- Compound: "CC(C)[C@@H](N(CCCN)C(=O)C1=CC=C(C)C=C1)C/2=N/C3=CC(=CC=C3C(=O)N2CC4=CC=CC=C4)Cl"
  Target Entity: "SEM cells"
  Measurement Unit: "%"
  cell viability: 17.2
- Compound: "CC1=CC=CC=C1N2\\C(=N/C3=C(C(=CC=C3)C)C2=O)C[N]4C=NC5=C4N=CN=C5N"
  Target Entity: "SEM cells"
  Measurement Unit: "%"
  cell viability: 46.2
- Compound: "Cl.Cl.Cl.O[C@@H](COc1cccc2ncccc12)CN1CCN([C@@H]2c3ccccc3[C@@H]3[C@H](c4ccccc42)C3(F)F)CC1"
  Target Entity: "SEM cells"
  Measurement Unit: "%"
  cell viability: 105
- Compound: "OC[C@H]1O[C@@H](O[C@@H]2[C@@H](CO)O[C@](O)(CO)[C@H]2O)[C@H](O)[C@@H](O)[C@H]1O"
  Target Entity: "SEM cells"
  Measurement Unit: "%"
  cell viability: 72.2

Look up cell viability for the entries below, preserving their order.
1. COc1cc2c(cc1OC)C1CC(=O)C(CC(C)C)CN1CC2 (configuration not stated)
2. O=c1c(-c2ccc(O)cc2)coc2cc(O[C@@H]3O[C@H](CO)[C@@H](O)[C@H](O)[C@H]3O)ccc12

**A:**
119
100

**Q:** Provide the documented cell viability with SEM cells as the system for CC(=O)O[C@H]1C(=O)[C@]2(C)[C@@H](O)C[C@H]3OC[C@@]3(OC(C)=O)C2[C@H](OC(=O)C4=CC=CC=C4)[C@]5(O)C[C@H](OC(=O)[C@H](O)[C@@H](NC(=O)C6=CC=CC=C6)C7=CC=CC=C7)\C(=C1/C5(C)C)C (some centres not stated)
**A:** 23.9

----------
# Test system: NOMO1
# Protocol Text: cell viability relative to DMSO control; higher = less cytotoxic
# Settings: RPMI 5 mM glucose + 10% FBS; 48 h; 0.0632 µM
Exercise: state measured cell viability for each of the compounds provided.
Numbers only, in %.

- Smiles Representation: "CC(C)OC(=O)OCOP(=O)(CO[C@H](C)Cn1cnc2c(N)ncnc21)OCOC(=O)OC(C)C.O=C(O)C=CC(=O)O"
  cell viability [%]: 115
- Smiles Representation: "C/C=C1\\NC(=O)[C@H]2CSSCC/C=C\\[C@H](CC(=O)N[C@H](C(C)C)C(=O)N2)OC(=O)[C@H](C(C)C)NC1=O"
  cell viability [%]: 18.1
- Smiles Representation: "CC(=O)N(C)c1cccc(-c2ccnc3c(C(=O)c4cccs4)cnn23)c1"
  cell viability [%]: 99.5
- Smiles Representation: "CC(C)n1nc(-c2cc3cc(O)ccc3[nH]2)c2c(N)ncnc21"
  cell viability [%]: 104
- Smiles Representation: "Nc1ccccc1NC(=O)c1ccc(CNC(=O)OCc2cccnc2)cc1"
  cell viability [%]: 108

// next entry
**Q:** // query cell viability value for entry COc1nccc(-c2c(-c3ccc(F)cc3)ncn2C2CCNCC2)n1
**A:** 113

----------
# Test system: NOMO1
# Protocol Text: cell viability relative to DMSO control; higher = less cytotoxic
# Settings: RPMI 5 mM glucose + 10% dialyzed FBS; 48 h; 0.0632 µM
Exercise: state measured cell viability for each of the molecules provided.
Numbers only, in %.

Sample records with cell viability:
- Molecule: "COC[C@H]1OC(=O)C2=COC3=C2[C@@]1(C)\\C4=C(C5CCC(=O)[C@@]5(C)C[C@H]4OC(C)=O)/C3=O (some centres undefined)"
  Measurement Unit: "%"
  cell viability: 93.3
- Molecule: "COC1=CC=CC2=C1C(=NC(=N2)C3=CC=CS3)NN4C(=O)\\C=C(C)/C4=O"
  Measurement Unit: "%"
  cell viability: 74.6
- Molecule: "COc1nccc(-c2c(-c3ccc(F)cc3)ncn2C2CCNCC2)n1"
  Measurement Unit: "%"
  cell viability: 106

Kindly review the next molecule as well.
**Q:** Return reported cell viability; argument: Cc1nc(NC(=O)N2CCC[C@H]2C(N)=O)sc1-c1ccnc(C(C)(C)C(F)(F)F)c1
**A:** 82.2

----------
# System: NOMO1
# Protocol Text: cell viability relative to DMSO control; higher = less cytotoxic
# Settings: RPMI 5 mM glucose + 10% dialyzed FBS; 48 h; 0.00702 µM
Readout Label: cell viability (%)
Answers are plain numbers, in %.

Worked examples, 3 molecules total:
- Molecule: "CCCCCCCCCCCCCCCCCCCCCCO"
  Experimental Value: 129
- Molecule: "CCc1cc(Nc2nccc(-c3c(-c4ccc(OC)c(C(=O)Nc5c(F)cccc5F)c4)nc4ccccn34)n2)c(OC)cc1N1CCC(N2CCN([S+](C)(=O)[O-])CC2)CC1"
  Experimental Value: 94.8
- Molecule: "CC(C)NCC(O)COc1ccc(COCCOC(C)C)cc1 (centres undefined)"
  Experimental Value: 119

Moving on to another molecule below.
**Q:** So what's the measured cell viability for this one? CO[C@H]1/C=C/O[C@@]2(C)Oc3c(C)c(O)c4c(O)c(c5c(nc6cc(C)ccn65)c4c3C2=O)NC(=O)/C(C)=C\C=C\[C@H](C)[C@H](O)[C@@H](C)[C@@H](O)[C@@H](C)[C@H](OC(C)=O)[C@@H]1C
**A:** 95.3

----------
Assign AUC of viability dose-response curve to each entry below.
# Test system: P12-Ichikawa
# Protocol Text: AUC of viability dose-response curve (% viability x log10 dose units); higher = less sensitive
# Settings: HPLM + 10% dialyzed FBS; 48 h
Numbers only.

// solved cases for AUC of viability dose-response curve follow
- Molecule: "CC(C)NCC(O)COc1ccc(COCCOC(C)C)cc1 (configuration not stated)"
  Readout Label: "AUC of viability dose-response curve"
  Experimental Value: 457
- Molecule: "OC[C@H]1O[C@@H](O[C@@H]2[C@@H](CO)O[C@](O)(CO)[C@H]2O)[C@H](O)[C@@H](O)[C@H]1O"
  Readout Label: "AUC of viability dose-response curve"
  Experimental Value: 456
- Molecule: "CC(=O)O.Cc1c(-c2ccc(O)cc2)n(Cc2ccc(OCCN3CCCCCC3)cc2)c2ccc(O)cc12"
  Readout Label: "AUC of viability dose-response curve"
  Experimental Value: 472
- Molecule: "C/C=C1\\NC(=O)[C@H]2CSSCC/C=C\\[C@H](CC(=O)N[C@H](C(C)C)C(=O)N2)OC(=O)[C@H](C(C)C)NC1=O"
  Readout Label: "AUC of viability dose-response curve"
  Experimental Value: 175
- Molecule: "COc1cnc(N[S+](=O)([O-])c2ccc(N)cc2)nc1"
  Readout Label: "AUC of viability dose-response curve"
  Experimental Value: 449

Provide each entry's AUC of viability dose-response curve from the list below.
1. COc1nccc(-c2c(-c3ccc(F)cc3)ncn2C2CCNCC2)n1
2. CCc1cncnc1N1CCN(Cc2nc3cc(C(F)(F)F)ccc3[nH]2)CC1
3. CC\1=C(C(\N=C(/N1)C2=CC(=NC=C2)Cl)C3=C(F)C=C(Cl)C=C3)/C(=O)NC4=C(F)C=C5[NH]N=CC5=C4 (configuration not stated)
4. Cc1ccccc1C(C(=O)NC1CCCCC1)N(C(=O)Cn1ccnc1C)c1cccc(F)c1 (configuration not stated)
5. CC(C)[C@@H](N(CCCN)C(=O)C1=CC=C(C)C=C1)C/2=N/C3=CC(=CC=C3C(=O)N2CC4=CC=CC=C4)Cl
6. CC(C)C(C)/C=C/C(C)C1CCC2C3=CC=C4CC(O)CCC4(C)C3CCC21C (configuration not stated)

**A:**
1. 452
2. 445
3. 440
4. 442
5. 61
6. 460
